- System: HFF
- assayProcedure: cell viability relative to DMSO control; higher = less cytotoxic
- conditionSummary: 1 µM; 72 h
// NB: equality with 70% counts as Not met; only cell viability strictly below is Met

Recorded results for 8 compounds are shown here.
Query: Answer whether the compound O=C(NCc1ccc(F)cc1)c1c(O)c2ncccc2[nH]c1=O has cell viability strictly less than 70%
Response: Met

Query: Answer whether the compound c1ccc(Cn2c(-c3ccccn3)nc3ccccc32)cc1 has cell viability strictly less than 70%
Response: Met

Query: Answer whether the compound C[C@@H](NC(=O)c1cccc(-c2cnc(-c3cc4ccccc4cn3)[nH]2)c1)c1ccc(F)cc1 has cell viability strictly less than 70%
Response: Not met

Query: Answer whether the compound Nc1nnc(-c2ccc(Cl)cc2)s1 has cell viability strictly less than 70%
Response: Met

Query: Answer whether the compound CC1(C)Cc2c(C#N)c(SCCc3ccccc3)nc(N3CCOCC3)c2CO1 has cell viability strictly less than 70%
Response: Not met

Query: Answer whether the compound CC1CN(c2ncnc3c2c(-c2ccccc2)cn3-c2ccc(F)cc2)CC(C)O1 (configuration not stated) has cell viability strictly less than 70%
Response: Not met

Query: Answer whether the compound NCc1ccc(S(N)(=O)=O)cc1 has cell viability strictly less than 70%
Response: Met

Query: Answer whether the compound N[C@@H]1CN(c2c(F)cc3c(=O)c(C(=O)O)cn([C@@H]4C[C@@H]4F)c3c2Cl)CC12CC2 has cell viability strictly less than 70%
Response: Met

---
Query: Answer whether the compound C=C[C@]1(C)C[C@@H](OC(=O)CS[C@@H]2C[C@H]3CC[C@@H](C2)N3C)[C@]2(C)[C@H](C)CC[C@]3(CCC(=O)[C@H]32)[C@@H](C)[C@@H]1O has cell viability strictly less than 70%
Response: Not met

----------
- Tested on: HFF
- assayProcedure: cell viability relative to DMSO control; higher = less cytotoxic
- conditionSummary: 1 µM; 72 h
Binning rule for recorded cell viability: low interval = under 60%, middle interval = from 60% up to 70%, high interval = 70% and over

Recorded results for 4 compounds are shown here.
Query: Entry CCCCCCC1c2ccc(O)cc2Oc2cc(O)ccc21 belongs to which category?
Response: high interval

Query: Entry Nc1nc(=O)[nH]cc1F belongs to which category?
Response: middle interval

Query: Entry O=C1NC(=O)C(Br)=C1Br belongs to which category?
Response: middle interval

Query: Entry Clc1ccc(COC(Cn2ccnc2)c2ccc(Cl)cc2Cl)c(Cl)c1 (stereo not given) belongs to which category?
Response: middle interval

---
Query: Entry CCc1cc(O)c(Oc2cccnc2N)cc1F belongs to which category?
Response: middle interval

Query: Entry CCOC(=O)N[C@@H]1CC[C@@H]2[C@@H](C1)C[C@H]1C(=O)O[C@H](C)[C@H]1[C@H]2/C=C/c1ccc(-c2cccc(F)c2)cn1 belongs to which category?
Response: low interval

----------
- System: HFF
- assayProcedure: cell viability relative to DMSO control; higher = less cytotoxic
- conditionSummary: 1 µM; 72 h
Would you mind telling me the reported cell viability of each entry?
Answers are plain numbers, in %.

The cases that follow already have their cell viability on record.
Query: Query cell viability for O=C(NN1C(=O)[C@@H]2[C@@H]3C=C[C@@H]([C@H]4C[C@@H]34)[C@@H]2C1=O)c1ccc(C(F)(F)F)cc1
Response: 71.8

Query: Query cell viability for OC1O[C@H](CSc2ccc(F)cc2)[C@@H](O)[C@H]1O (stereo not given in full)
Response: 67.7

Query: Query cell viability for CNc1nc(=O)[nH]cc1F
Response: 68.4

Query: Query cell viability for Cn1cncc1[C@@](N)(c1ccc(Cl)cc1)c1ccc2c(c1)c(-c1cccc(Cl)c1)cc(=O)n2C
Response: 61.1

Query: Query cell viability for CCc1cc(Cc2cnc(N)nc2N)cc2c1N(C)CCC2C (stereo not given)
Response: 71.9

List reported cell viability for each of these molecules:
1. NC(=O)c1c(N)sc2c1CCCCC2
2. CC(Cc1ccccc1)C(=O)Nc1ccc(Cl)cc1C(=O)O (stereo not given)
3. Nc1nc(N)c2c(Sc3ccccc3)cccc2n1

Response:
1. 74.1
2. 65
3. 68.7

List reported cell viability for each of these molecules:
1. O=P(O)(O)C(CCCc1cccc(Oc2ccccc2)c1)S(=O)(=O)O (stereo not given)
2. CN1c2ccc(Cl)cc2N(c2ccccc2)C(=O)c2cn(Cc3ccc(CN4CCOCC4)cc3)nc21
3. O=C(Nc1ccccc1)N(Cc1cc(Br)ccc1O)c1ccc(F)cc1
4. Fc1ccc2c(/C=C/c3cccnc3)c[nH]c2c1
5. CN(C/C=C/C#CC(C)(C)C)Cc1cccc2ccccc12
6. COc1ccccc1NC(=O)c1ccccc1Sc1ccc([N+](=O)[O-])cc1

Response:
74.4
68.2
67.1
63.2
64.9
55.7

List reported cell viability for each of these molecules:
1. C[C@H]1[C@@H](c2cccc(C(F)(F)F)c2)OC(=O)N1C(=O)NCc1cncc2ccccc12
2. CC#C[C@]1(O)CC[C@H]2[C@@H]3CCC4=CC(=O)CCC4=C3[C@@H](c3ccc(N(C)C)cc3)C[C@@]21C
3. NC[C@H]1OB(O)c2c(OCCCO)cccc21
4. Nc1ccc(-c2nc3cc(C(F)(F)F)ccc3n2C23CC4CC(CC(C4)C2)C3)cc1
5. O=C(Nc1[nH]c(=O)ncc1F)c1ccccc1
6. CC(C)CCN1C(=O)C(C2=NS(=O)(=O)c3cc(NS(C)(=O)=O)ccc3N2)=C(O)[C@@H]2[C@H]3CC[C@H](C3)[C@@H]21
7. CC(C)(C)c1cccc(-c2nc3cc(C(=N)N)ccc3[nH]2)c1O
8. CC(C)(C)c1cc(CCC(=O)N2CCC2)cc(C(C)(C)C)c1O

Response:
1. 70
2. 52
3. 69.9
4. 66.3
5. 64.8
6. 67.8
7. 64.8
8. 72.6

List reported cell viability for each of these molecules:
1. O=C(c1nc2c(C(F)(F)F)cc(C3CC3)cn2c1Cl)N1CCN([C@H]2CC[C@H](O)CC2)C(=O)C1
2. O=C(O)c1ccc(-c2ccc(O[C@H]3O[C@H](CO)[C@@H](O)[C@H](O)[C@@H]3O)cc2)cc1
3. CCNC(=O)Nc1cn2c(-c3ncc(CC)cn3)cc(-c3cccnc3)cc2n1

Response:
1. 61.7
2. 63.9
3. 71.6
